# METHOD_SUMMARY: In vivo pharmacokinetics
# Set-up: species or system female BALB/c mice
# ASSAY_CONTEXT: female, BALB/c, plasma; Mouse, oral 25 mg/kg
REPORTED_METRIC: Cmax (ng/mL)
Give the quantity in ng/mL, number only.

Query :: Look up and report measured Cmax for this entry: `Cc1[nH]c2nc(N)nc(C)c2c1-c1ccc(C#N)c2c1OCO2`
Result :: 10400

* * *

# METHOD_SUMMARY: Compartmental PK modelling and repeat-dose simulation
# Set-up: species or system mice
# ASSAY_CONTEXT: mouse, plasma, po, 25 mg/kg, Mice, 25 mg/kg, fitted; read-out: Cmax
REPORTED_METRIC: Cmax (ng/mL)
// return numeric value only (unit: ng/mL, not printed)

Query :: Consider the compound `Cc1[nH]c2nc(N)nc(C)c2c1-c1ccc(C#N)c2c1OCO2` . State its measured Cmax.
Result :: 8830

* * *

# METHOD_SUMMARY: Compartmental PK modelling and repeat-dose simulation
# Design: species or system mice
# ASSAY_CONTEXT: mouse, plasma, po, 12.5 mg/kg, mice, 12.5 mg/kg bid, 5 days, simulated; read-out: AUC24 ss
REPORTED_METRIC: AUC
Hey, just the number and the unit after it is fine.

Query :: Identify AUC associated with the compound `Cc1[nH]c2nc(N)nc(C)c2c1-c1ccc(C#N)c2c1OCO2`
Result :: 82000 ng·h/mL

* * *

# METHOD_SUMMARY: In vivo pharmacokinetics
# Set-up: species or system male beagle dogs
# ASSAY_CONTEXT: male, beagle, dog, plasma, iv, 1 mg/kg, Dog, intravenous 1.0 mg/kg; read-out: Plasma CL
REPORTED_METRIC: clearance (mL/min/kg)
Write the answer as a number in mL/min/kg, unit excluded.

Query :: Using the record for Cc1[nH]c2nc(N)nc(C)c2c1-c1ccc(C#N)c2c1OCO2 [DNDI-6174] , state its measured clearance.
Result :: 3.5

* * *

# METHOD_SUMMARY: In vivo pharmacokinetics
# Design: species or system male beagle dogs
# ASSAY_CONTEXT: male, beagle, dog, plasma, iv, 1 mg/kg, Dog, intravenous 1.0 mg/kg; read-out: Plasma AUC0-inf
REPORTED_METRIC: AUC(0-inf) (ng·h/mL)
Respond with the bare value in ng·h/mL.

Query :: Return AUC(0-inf) (reported value) for this compound: Cc1[nH]c2nc(N)nc(C)c2c1-c1ccc(C#N)c2c1OCO2 [DNDI-6174]
Result :: 5000

* * *

# METHOD_SUMMARY: In vivo pharmacokinetics
# Set-up: species or system female golden Syrian hamsters
# ASSAY_CONTEXT: female, golden Syrian, hamster, plasma; hamsters, oral 25 mg/kg qd, 5 days
REPORTED_METRIC: Cmax at 5 days (µg/mL)
Response body: numeric value in µg/mL, unit text excluded.

Query :: // Input: `Cc1[nH]c2nc(N)nc(C)c2c1-c1ccc(C#N)c2c1OCO2` . Output its Cmax at 5 days only.
Result :: 7.79

* * *

# METHOD_SUMMARY: In vivo pharmacokinetics
# Parameters: species or system male Sprague Dawley rats
# ASSAY_CONTEXT: male, Sprague Dawley, rat, plasma; rats, single oral 50 mg/kg
REPORTED_METRIC: Tmax (h)
Write it as a number; the unit h goes unstated.

Query :: Entry Cc1[nH]c2nc(N)nc(C)c2c1-c1ccc(C#N)c2c1OCO2 [DNDI-6174] needs its Tmax filled in; supply it.
Result :: 5.7

* * *

# METHOD_SUMMARY: Compartmental PK modelling and repeat-dose simulation
# Design: species or system mice
# ASSAY_CONTEXT: mouse, plasma, po; Mice, 3.6 mg/kg, fitted
REPORTED_METRIC: AUC(0-inf) (ng·h/mL)
Respond numerically; units are ng·h/mL and should not be typed.

Query :: Look up AUC(0-inf) of `Cc1[nH]c2nc(N)nc(C)c2c1-c1ccc(C#N)c2c1OCO2` and report it.
Result :: 4840

* * *

# METHOD_SUMMARY: In vivo pharmacokinetics
# Set-up: species or system male Sprague Dawley rats
# ASSAY_CONTEXT: male, Sprague Dawley, rat, plasma, iv, 3 mg/kg, Rat, intravenous 3.0 mg/kg, WuXi AppTec; read-out: Plasma AUC0-inf
# Protocol: Single dose intravenous (IV) pharmacokinetic (PK) studies in male Sprague Dawley rats and IV and oral PK studies in female BALB/c mice were conducted at Monash University. […] Blood was sampled via a cannula implanted in the carotid artery (also on the day prior to dosing) at pre-determined time points up to 24 h post-dose. Samples were transferred to vials containing heparin as an anticoagulant, gently mixed and centrifuged, and plasma separated for subsequent quantitative analysis using LC-MS. […]
REPORTED_METRIC: AUC(0-inf) (ng·h/mL)
Provide the reading as a plain figure in ng·h/mL.

Query :: Answer with the recorded AUC(0-inf) for the compound listed here: `Cc1[nH]c2nc(N)nc(C)c2c1-c1ccc(C#N)c2c1OCO2`
Result :: 18500

* * *

# TARGET_OF_ASSAY: UniProt Q12809
# Sequence (Q12809 whole entry): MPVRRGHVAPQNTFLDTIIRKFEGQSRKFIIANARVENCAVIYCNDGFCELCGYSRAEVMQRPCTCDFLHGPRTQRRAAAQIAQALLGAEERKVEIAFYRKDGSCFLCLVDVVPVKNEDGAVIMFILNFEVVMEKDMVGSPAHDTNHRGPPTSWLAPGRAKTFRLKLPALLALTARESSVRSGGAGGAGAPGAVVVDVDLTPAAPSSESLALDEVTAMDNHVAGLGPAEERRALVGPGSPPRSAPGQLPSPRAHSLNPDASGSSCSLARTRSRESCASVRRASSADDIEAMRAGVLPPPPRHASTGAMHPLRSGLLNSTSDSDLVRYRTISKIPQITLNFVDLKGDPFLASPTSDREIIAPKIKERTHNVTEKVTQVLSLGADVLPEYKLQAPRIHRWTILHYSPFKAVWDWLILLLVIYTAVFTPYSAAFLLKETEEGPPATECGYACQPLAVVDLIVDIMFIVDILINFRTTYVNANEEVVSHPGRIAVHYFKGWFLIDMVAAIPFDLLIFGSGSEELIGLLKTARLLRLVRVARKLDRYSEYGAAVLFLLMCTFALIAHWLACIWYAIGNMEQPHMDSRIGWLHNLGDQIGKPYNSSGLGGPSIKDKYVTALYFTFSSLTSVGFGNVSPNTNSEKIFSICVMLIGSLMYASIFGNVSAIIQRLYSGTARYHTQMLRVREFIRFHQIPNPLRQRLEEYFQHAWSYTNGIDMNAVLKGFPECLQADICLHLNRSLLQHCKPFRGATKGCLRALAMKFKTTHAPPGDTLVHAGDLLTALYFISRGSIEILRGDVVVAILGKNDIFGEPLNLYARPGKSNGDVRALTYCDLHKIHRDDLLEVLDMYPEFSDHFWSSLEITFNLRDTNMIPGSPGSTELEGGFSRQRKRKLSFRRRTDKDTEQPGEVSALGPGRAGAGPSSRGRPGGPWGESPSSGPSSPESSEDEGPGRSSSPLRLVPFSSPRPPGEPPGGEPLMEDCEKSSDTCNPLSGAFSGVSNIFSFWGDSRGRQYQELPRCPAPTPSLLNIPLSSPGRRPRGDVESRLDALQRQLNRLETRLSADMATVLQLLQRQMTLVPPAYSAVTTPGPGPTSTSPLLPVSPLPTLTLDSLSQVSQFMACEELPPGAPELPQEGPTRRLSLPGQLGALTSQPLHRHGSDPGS
# METHOD_SUMMARY: hERG channel test (Qpatch / Qube)
# Type: cell-based
# Set-up: host or cells: Chinese hamster ovary cells
# ASSAY_CONTEXT: Qpatch hERG, 10 μM
REPORTED_METRIC: inhibition at 10 µM
Please answer in the form of a number followed by its unit of measurement.

Query :: Please look at this compound and report its inhibition at 10 µM: `Cc1[nH]c2nc(N)nc(C)c2c1-c1ccc(C#N)c2c1OCO2`
Result :: 48%

* * *

# METHOD_SUMMARY: Compartmental PK modelling and repeat-dose simulation
# Design: species or system mice
# ASSAY_CONTEXT: mouse, plasma, po, 12.5 mg/kg, mice, 12.5 mg/kg bid, 5 days, simulated
REPORTED_METRIC: Cmax at 5 days (ng/mL)
Kindly provide the numeric value in ng/mL only, without the unit symbol.

Query :: Note down Cmax at 5 days recorded for `Cc1[nH]c2nc(N)nc(C)c2c1-c1ccc(C#N)c2c1OCO2`
Result :: 6500

* * *

# METHOD_SUMMARY: Human PK and dose prediction (IVIVE, allometry, GastroPlus PBPK)
# ASSAY_CONTEXT: plasma, from in vitro predictions, read-out: expected plasma clearance in humans
REPORTED_METRIC: clearance

Query :: Check the records and state clearance for `Cc1[nH]c2nc(N)nc(C)c2c1-c1ccc(C#N)c2c1OCO2`
Result :: ~0.06 L/h/kg

* * *

# METHOD_SUMMARY: In vivo pharmacokinetics
# Set-up: species or system female BALB/c mice
# ASSAY_CONTEXT: female, BALB/c, mouse, plasma; mice, oral 12.5 mg/kg bid, 5 days; read-out: Cmax (last dose)
REPORTED_METRIC: Cmax at 5 days (ng/mL)
Write the answer as a number in ng/mL, unit excluded.

Query :: Tell me Cmax at 5 days reported for Cc1[nH]c2nc(N)nc(C)c2c1-c1ccc(C#N)c2c1OCO2 [DNDI-6174]
Result :: 6810

* * *

# System: L. infantum
# METHOD_SUMMARY: Leishmania intramacrophage in vitro assay
# Type: cell-based
# ASSAY_CONTEXT: L. infantum MHOM/FR/96/LEM3323 Cl4 PM-R (paromomycin resistant)
# Method: A drug incubation period of 96 h was applied, and cells were stained with Giemsa for microscopic evaluation of cellular amastigote burdens. Percentage reduction compared to the burden in the infected non-treated control wells was used as a measure for drug activity.
REPORTED_METRIC: EC50 (nM)
Give a bare numeral; the unit nM is implied.

Query :: Supply measured EC50 of Cc1[nH]c2nc(N)nc(C)c2c1-c1ccc(C#N)c2c1OCO2 [DNDI-6174] in your reply.
Result :: 80

* * *

# METHOD_SUMMARY: Solubility in biorelevant buffers
# Assay type: physicochemical
# ASSAY_CONTEXT: phosphate buffered saline (PBS), pH 7.4, aqueous buffer, pH 7.4; read-out: Solubility PBS
REPORTED_METRIC: solubility
Hey, just the number and the unit after it is fine.

Query :: Quickly give me recorded solubility for Cc1[nH]c2nc(N)nc(C)c2c1-c1ccc(C#N)c2c1OCO2 [DNDI-6174]
Result :: 6.5 µg/mL

* * *

# TARGET_OF_ASSAY: CYP2C19 (Homo sapiens)
# Construct: incubation of isoform-specific substrates with human liver microsomes; from tissue; host or cells: human liver microsomes
# Sequence (P33261 whole entry, canonical isoform): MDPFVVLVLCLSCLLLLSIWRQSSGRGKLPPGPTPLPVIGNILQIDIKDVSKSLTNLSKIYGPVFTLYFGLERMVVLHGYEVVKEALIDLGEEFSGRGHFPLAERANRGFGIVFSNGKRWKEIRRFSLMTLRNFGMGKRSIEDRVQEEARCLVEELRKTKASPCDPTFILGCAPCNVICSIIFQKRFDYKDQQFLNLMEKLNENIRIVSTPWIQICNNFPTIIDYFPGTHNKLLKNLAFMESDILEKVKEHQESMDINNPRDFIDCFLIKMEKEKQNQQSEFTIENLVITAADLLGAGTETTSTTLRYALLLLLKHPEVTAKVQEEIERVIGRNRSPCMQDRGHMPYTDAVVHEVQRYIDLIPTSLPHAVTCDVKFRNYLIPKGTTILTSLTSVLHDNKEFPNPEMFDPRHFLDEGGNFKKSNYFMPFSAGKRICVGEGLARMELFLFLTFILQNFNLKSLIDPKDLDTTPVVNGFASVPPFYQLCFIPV
# METHOD_SUMMARY: Cytochrome P450 inhibition, human liver microsomes
# Assay type: in vitro ADME
# ASSAY_CONTEXT: with NADPH preincubation; read-out: Time-dependent inhibition IC50
REPORTED_METRIC: pIC50
FYI, pIC50 means -log10 of a concentration in mol per litre.

Query :: Answer with the recorded pIC50 of `Cc1[nH]c2nc(N)nc(C)c2c1-c1ccc(C#N)c2c1OCO2` only.
Result :: 5.13

* * *

# METHOD_SUMMARY: In vivo pharmacokinetics
# Parameters: species or system female BALB/c mice
# ASSAY_CONTEXT: female, BALB/c, mouse, plasma; mice, oral 3.6 mg/kg bid, 5 days; read-out: AUC0-24 (first dose)
REPORTED_METRIC: AUC(0-t) (ng·h/mL)
The reply should contain only the number, in ng·h/mL.

Query :: Give recorded AUC(0-t). Cc1[nH]c2nc(N)nc(C)c2c1-c1ccc(C#N)c2c1OCO2 [DNDI-6174]
Result :: 10600

Data provenance is paper PMC7615677.
